The measurements presented in this section are drawn from ChEMBL document CHEMBL4387751.

System Name: Dihydrofolate reductase (Rattus norvegicus, UniProt Q920D2)
Sequence (Q920D2 whole entry): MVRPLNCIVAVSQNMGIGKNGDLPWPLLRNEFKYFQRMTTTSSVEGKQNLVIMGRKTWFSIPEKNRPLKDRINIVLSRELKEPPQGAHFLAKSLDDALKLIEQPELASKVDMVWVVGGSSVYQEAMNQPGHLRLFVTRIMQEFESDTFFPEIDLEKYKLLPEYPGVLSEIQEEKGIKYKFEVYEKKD

Given Smiles	IC50 (nM)
COc1ccc(OC)c(NCc2cnc3nc(N)nc(N)c3c2)c1	500

---

Tested on: DHFR (human versus Pneumocystis jirovecii)
Assay Procedure: Selectivity ratio of IC50 for inhibition of recombinant human DHFR using 18 uM DHFA as substrate to IC50 for inhibition of Pneumocystis jirovecii DHFR using 18 uM DHFA as substrate
Format: toxicity
Cond: recombinant human DHFR and Pneumocystis jirovecii DHFR, probe DHFA (substrate), read-out: Ratio IC50
Measured Quantity: selectivity ratio

Given Smiles	Measured Quantity	Modifier	Observed Result
Nc1nc(N)c2cc(Nc3ccc4ccccc4c3)cnc2n1	selectivity ratio	=	5
Cc1ccc(Nc2cnc3nc(N)nc(N)c3c2)cc1	selectivity ratio	=	3
Nc1nc(N)c2cc(Nc3cc(F)c(F)c(F)c3)cnc2n1	selectivity ratio	=	4
Nc1nc(N)c2cc(Nc3ccccc3)cnc2n1	selectivity ratio	<	1
Nc1nc(N)c2cc(Nc3cccc4ccccc34)cnc2n1	selectivity ratio	=	8
